# Test system: OVCAR4
# protocolText: Euclidean distance of Cell Painting phenotypic profile (signed KS, 77 features) to DMSO centroid (dimensionless distance); higher = stronger phenotypic change vs DMSO (phenoactivity)
# settings: 48 h; 5 or 10 uM (library dependent)
Structures can show the parent of a compound that is named as a salt.
Outcome label depends on Euclidean distance relative to 1: at/above gives 1 (yes), below gives 0 (no).

                                   compound    class
0  O=c1[nH]c2ccccc2n1CCCN1CCC(n2c(=O)[nH]c3cc(Cl)ccc32)CC1 [Domperidone]  1 (yes)
1  Cc1ccccc1-n1c(CF)nc2ccc(N)cc2c1=O [Afloqualone]   0 (no)
2  CC(C)NCC(O)c1ccccc1Cl (centres undefined) [Clorprenaline HCl]  1 (yes)
3  CCN(C)C(=O)Oc1cccc([C@H](C)N(C)C)c1 [Rivastigmine Tartrate]  1 (yes)
4  Cc1ccc2c(c1)[C@]13CCCC[C@@H]1[C@H](C2)N(C)CC3 [Dimemorfan phosphate]  1 (yes)
5  c1cc2c(cc1[C@H]1OC[C@H]3[C@@H]1CO[C@@H]3c1ccc3c(c1)OCO3)OCO2 [Sesamin]  1 (yes)
6  CNC(C)Cc1ccccc1OC (centres undefined) [Methoxyphenamine Hydrochloride]  1 (yes)
7              N.N.[Cl][Pt][Cl] [Cisplatin]   0 (no)

The reported numbers originate from the supplement of paper PMC10127200.
